System: HCC1937
Assay: relative cell viability, compound + erastin, vs DMSO (fraction of DMSO control); higher = less growth inhibition
Conditions: 72 h
Please provide measured relative cell viability for the entries that follow.
Provide a numeric answer; units are not to be included.

Entry under test: CC1(C)C[C@H]2C3=CC[C@@H]4[C@@]5(C)CC[C@H](O)[C@@](C)(CO)[C@@H]5CC[C@@]4(C)[C@]3(C)C[C@H](O)[C@@]2(CO)[C@@H](O)[C@@H]1O [Gymnemagenin] + CCOc1ccccc1-n1c(C(C)N2CCN(C(=O)COc3ccc(Cl)cc3)CC2)nc2ccccc2c1=O [erastin] . Its relative cell viability was 0.918

Record summary for CC(C)(Oc1ccc(CCNC(=O)c2ccc(Cl)cc2)cc1)C(=O)O [Bezafibrate] + CCOc1ccccc1-n1c(C(C)N2CCN(C(=O)COc3ccc(Cl)cc3)CC2)nc2ccccc2c1=O [erastin] : reported relative cell viability = 0.736

CCN(CC)Cc1ccc(C(=O)N(CCc2ccccc2OC)[C@@H]2CCNC2)cc1 + CCOc1ccccc1-n1c(C(C)N2CCN(C(=O)COc3ccc(Cl)cc3)CC2)nc2ccccc2c1=O [erastin] has a reported relative cell viability of 0.872

# molecule Cc1ccc(Oc2nc3cc(-c4ccc(-c5ccccc5)cc4)c(Cl)cc3[nH]2)cc1C(=O)O + CCOc1ccccc1-n1c(C(C)N2CCN(C(=O)COc3ccc(Cl)cc3)CC2)nc2ccccc2c1=O [erastin] ; its relative cell viability = 0.553

CC(C)OC(=O)C(C(=O)OC(C)C)=C1SC=CS1 [Malotilate] + CCOc1ccccc1-n1c(C(C)N2CCN(C(=O)COc3ccc(Cl)cc3)CC2)nc2ccccc2c1=O [erastin] has a reported relative cell viability of 0.459

Recorded result, CC(C)OC(=O)CCC/C=C\C[C@@H]1[C@@H](CC[C@@H](O)CCc2ccccc2)[C@H](O)C[C@@H]1O [Latanoprost] + CCOc1ccccc1-n1c(C(C)N2CCN(C(=O)COc3ccc(Cl)cc3)CC2)nc2ccccc2c1=O [erastin] , relative cell viability: 1

###

Test system: HCC1937
Experiment: relative cell viability, compound + erastin, vs DMSO (fraction of DMSO control); higher = less growth inhibition
Conditions: 72 h
Where a name gives a salt, the structure may show the parent alone.
RECORDED_ENDPOINT: relative cell viability

Simply: O=C(Nc1ccccc1)N1CCN(c2nc(-c3ccccc3)ns2)CC1 + CCOc1ccccc1-n1c(C(C)N2CCN(C(=O)COc3ccc(Cl)cc3)CC2)nc2ccccc2c1=O [erastin] , HCC1937, relative cell viability = 0.559

HCC1937 assay, compound C=C1C[C@]2(O)O[C@@]3(CC2=C(C)C)[C@@H](C)CC[C@@H]13 [Isocurcumenol] + CCOc1ccccc1-n1c(C(C)N2CCN(C(=O)COc3ccc(Cl)cc3)CC2)nc2ccccc2c1=O [erastin] , recorded relative cell viability = 0.566

So the reported relative cell viability for O=C(O)CC[C@H](O)C(=O)O [L-2-Hydroxyglutaric acid disodium] + CCOc1ccccc1-n1c(C(C)N2CCN(C(=O)COc3ccc(Cl)cc3)CC2)nc2ccccc2c1=O [erastin] , on HCC1937, turned out to be 0.747

Simply: c1ccc([C@H]2CN3CCSC3=N2)cc1 [Levamisole hydrochloride] + CCOc1ccccc1-n1c(C(C)N2CCN(C(=O)COc3ccc(Cl)cc3)CC2)nc2ccccc2c1=O [erastin] , HCC1937, relative cell viability = 0.768

Log: HCC1937, compound CN(CCOc1ccc(CC2SC(=O)NC2=O)cc1)c1ccccn1 (stereo unspecified) [Rosiglitazone maleate] + CCOc1ccccc1-n1c(C(C)N2CCN(C(=O)COc3ccc(Cl)cc3)CC2)nc2ccccc2c1=O [erastin] , relative cell viability = 0.824

Record CCCCCC=CC(=O)CCc1ccc(O)c(OC)c1 [6-Shogaol] + CCOc1ccccc1-n1c(C(C)N2CCN(C(=O)COc3ccc(Cl)cc3)CC2)nc2ccccc2c1=O [erastin] has HCC1937 relative cell viability equal to 0.639

The compound Cn1nc(C(=O)N(Cc2ccccc2)Cc2ccc(C(=O)O)cc2)c2c1-c1cc(Cl)ccc1OC2 [Nidufexor] + CCOc1ccccc1-n1c(C(C)N2CCN(C(=O)COc3ccc(Cl)cc3)CC2)nc2ccccc2c1=O [erastin] , when measured on HCC1937, yielded relative cell viability of 0.638

Sample CCN(CC)CCCC(C)Nc1c2ccc(Cl)cc2nc2ccc(OC)cc12 (stereo unspecified) [Quinacrine dihydrochloride] + CCOc1ccccc1-n1c(C(C)N2CCN(C(=O)COc3ccc(Cl)cc3)CC2)nc2ccccc2c1=O [erastin] , system: HCC1937. Its relative cell viability is 0.164

Record CC(C)(Oc1ccc(C2CC2(Cl)Cl)cc1)C(=O)O (stereo unspecified) [Ciprofibrate] + CCOc1ccccc1-n1c(C(C)N2CCN(C(=O)COc3ccc(Cl)cc3)CC2)nc2ccccc2c1=O [erastin] has HCC1937 relative cell viability equal to 0.848

COC(=O)CN(c1ccc(CN(c2ccc(OCc3ccc(C)cc3)c(C(=O)OC)c2)S(=O)(=O)Cc2ccccc2)cc1)S(C)(=O)=O + CCOc1ccccc1-n1c(C(C)N2CCN(C(=O)COc3ccc(Cl)cc3)CC2)nc2ccccc2c1=O [erastin] tested on HCC1937 gave relative cell viability: 0.624

Item CN(CCOc1ccc(CC2SC(=O)NC2=O)cc1)c1ccccn1 (stereo unspecified) [Rosiglitazone HCl] + CCOc1ccccc1-n1c(C(C)N2CCN(C(=O)COc3ccc(Cl)cc3)CC2)nc2ccccc2c1=O [erastin] ; assay system HCC1937; relative cell viability reported as 0.619

Bench note, HCC1937: entry N=C(N)NC(=N)NCCc1ccccc1 [Phenformin hydrochloride] + CCOc1ccccc1-n1c(C(C)N2CCN(C(=O)COc3ccc(Cl)cc3)CC2)nc2ccccc2c1=O [erastin] , its relative cell viability = 0.756

Bench note, HCC1937: CCC(C)(Oc1ccc(C2(c3ccc(OC(C)(CC)C(=O)O)cc3)CCCCC2)cc1)C(=O)O (stereo unspecified) [Clinofibrate] + CCOc1ccccc1-n1c(C(C)N2CCN(C(=O)COc3ccc(Cl)cc3)CC2)nc2ccccc2c1=O [erastin] , relative cell viability reads 0.544

Short answer on HCC1937 for O=C(Nc1cccnc1)N1CCC(Cc2cccc(Oc3ccc(C(F)(F)F)cn3)c2)CC1 + CCOc1ccccc1-n1c(C(C)N2CCN(C(=O)COc3ccc(Cl)cc3)CC2)nc2ccccc2c1=O [erastin] , relative cell viability: 0.663

The reported relative cell viability value, HCC1937, for NC(=O)c1cccc(-c2cccc(OC(=O)NC3CCCCC3)c2)c1 + CCOc1ccccc1-n1c(C(C)N2CCN(C(=O)COc3ccc(Cl)cc3)CC2)nc2ccccc2c1=O [erastin] reads 0.756

Value sought: relative cell viability, system HCC1937, item COc1ccc(-c2coc3cc(O)cc(O)c3c2=O)cc1 [Biochanin A] + CCOc1ccccc1-n1c(C(C)N2CCN(C(=O)COc3ccc(Cl)cc3)CC2)nc2ccccc2c1=O [erastin] . Result: 0.589

###

Tested on: HCC1937;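 note: viability read by CCK-8 kit in 96-well plates, part of a combination screen pairing lipid-metabolism-targeting compounds with erastin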
Assay: relative cell viability, compound + erastin, vs DMSO (fraction of DMSO control); higher = less growth inhibition
Conditions: 72 h
I'd appreciate it if you could supply relative cell viability values for the items below.
Write no unit; give the number alone.

Value of relative cell viability reported for the compound Cc1cnc(C(=O)NCCc2ccc(S(=O)(=O)NC(=O)NC3CCCCC3)cc2)cn1 [Glipizide] + CCOc1ccccc1-n1c(C(C)N2CCN(C(=O)COc3ccc(Cl)cc3)CC2)nc2ccccc2c1=O [erastin] is 0.732

Per the records, this compound ( O=C1C(SCCO)=C(SCCO)C(=O)c2ccccc21 + CCOc1ccccc1-n1c(C(C)N2CCN(C(=O)COc3ccc(Cl)cc3)CC2)nc2ccccc2c1=O [erastin] ) has relative cell viability equal to 0.575

The reported value for NC(N)=NN=Cc1cccc(Cl)c1Cl [Raphin1] + CCOc1ccccc1-n1c(C(C)N2CCN(C(=O)COc3ccc(Cl)cc3)CC2)nc2ccccc2c1=O [erastin] in terms of relative cell viability is 0.556

Query Cc1ccc(C)c(OCCCC(C)(C)C(=O)O)c1 [Gemfibrozil] + CCOc1ccccc1-n1c(C(C)N2CCN(C(=O)COc3ccc(Cl)cc3)CC2)nc2ccccc2c1=O [erastin] yields relative cell viability of 0.688
